tested on: Streptococcus pneumoniae; test: Antibacterial activity against Streptococcus pneumoniae ATCC 6301; assay type: functional
quantity.kind: MIC (µg/mL)
Give the number; µg/mL is assumed, so skip it.

[in] Give recorded MIC with Streptococcus pneumoniae for the following compound: CC(C)NC(=N)c1ccc2[nH]c(-c3ccc(Oc4ccc(-c5nc6cc(C(=N)NC(C)C)ccc6[nH]5)cn4)cc3)nc2c1
[out] 0.12

[in] Give recorded MIC with Streptococcus pneumoniae for the following compound: N=C(c1ccc2[nH]c(-c3ccc(Oc4ccc(-c5nc6cc(C(=N)N7CCSCC7)ccc6[nH]5)cc4)cc3)nc2c1)N1CCSCC1
[out] 0.25

----------
test system: Candida albicans; test: Antifungal activity against Candida albicans ATCC 90028; assay type: functional
Please note: MIC exactly at 4 µg/mL is Not satisfied. Only values below 4 µg/mL get Satisfied.

Known results for molecules:
molecule="CC1CC(C)CN(C(=N)c2ccc3[nH]c(-c4ccc(Oc5ccc(-c6nc7cc(C(=N)N8CC(C)CC(C)C8)ccc7[nH]6)cc5)cc4)nc3c2)C1 (centres undefined)" test_system="Candida albicans" qualitative_label="Not satisfied"
molecule=N=C(c1ccc2[nH]c(-c3ccc(Oc4ccc(-c5nc6cc(C(=N)N7CCOCC7)ccc6[nH]5)cc4)cc3)nc2c1)N1CCOCC1 test_system="Candida albicans" qualitative_label="Not satisfied"
molecule=N=C(c1ccc2[nH]c(-c3ccc(Oc4ccc(-c5nc6cc(C(=N)N7CCCCCC7)ccc6[nH]5)cc4)cc3)nc2c1)N1CCCCCC1 test_system="Candida albicans" qualitative_label="Not satisfied"
molecule=CC(C)NC(=N)c1ccc2[nH]c(-c3ccc(Oc4ccc(-c5nc6cc(C(=N)NC(C)C)ccc6[nH]5)cn4)cc3)nc2c1 test_system="Candida albicans" qualitative_label=Satisfied

[in] Say whether its MIC is strictly beneath 4 µg/mL. Entry: CC(C)NC(=N)c1ccc2[nH]c(-c3ccc(Oc4ccc(-c5nc6cc(C(=N)NC(C)C)ccc6[nH]5)cc4Cl)cc3)nc2c1
[out] Satisfied

----------
tested on: Candida albicans; assay: Antifungal activity against Candida albicans ATCC 90028; assay type: functional
// reported MIC per item
Give the number; µg/mL is assumed, so skip it.

Some solved entries appear below for comparison.
compound_structure=CC(C)NC(=N)c1ccc2[nH]c(-c3ccc(Oc4ccc(-c5nc6cc(C(=N)NC(C)C)ccc6[nH]5)cc4)cc3)nc2c1 u=µg/mL numeric_value=1
compound_structure=N=C(c1ccc2[nH]c(-c3ccc(Oc4ccc(-c5nc6cc(C(=N)N7CCSCC7)ccc6[nH]5)cc4)cc3)nc2c1)N1CCSCC1 u=µg/mL numeric_value=16
compound_structure=CCN1CCN(C(=N)c2ccc3[nH]c(-c4ccc(Oc5ccc(-c6nc7cc(C(=N)N8CCN(CC)CC8)ccc7[nH]6)cc5)cc4)nc3c2)CC1 u=µg/mL numeric_value=32

Let us examine a further case.
[in] Entry CC(C)NC(=N)c1ccc2cc(-c3ccc(Oc4ccc(-c5cc6ccc(C(=N)NC(C)C)cc6[nH]5)cc4)cc3)[nH]c2c1 has what MIC?
[out] 0.5

----------
tested on: Streptococcus pneumoniae; experiment: Antibacterial activity against Streptococcus pneumoniae ATCC 6301; format: functional
// reported MIC per item

compound_structure=N=C(NC1CCCC1)c1ccc2[nH]c(-c3ccc(Oc4ccc(-c5nc6cc(C(=N)NC7CCCC7)ccc6[nH]5)cc4)cc3)nc2c1 result="< 0.06 mg/L"
compound_structure=CCC(CC)NC(=N)c1ccc2[nH]c(-c3ccc(Oc4ccc(-c5nc6cc(C(=N)NC(CC)CC)ccc6[nH]5)cc4)cc3)nc2c1 result="< 0.06 mg/L"

[in] Give recorded MIC with Streptococcus pneumoniae for the following molecule: N=C(c1ccc2[nH]c(-c3ccc(Oc4ccc(-c5nc6cc(C(=N)N7CCC(N8CCCC8)CC7)ccc6[nH]5)cc4)cc3)nc2c1)N1CCC(N2CCCC2)CC1
[out] > 32 mg/L
